Hey, just so you know, these numbers are from paper PMC6256112.

- Target or system: hCB2 (Homo sapiens, UniProt P34972)
- Construct: expressed in transfected cells; host or cells: HEK Flp-in
- Sequence (P34972 whole entry): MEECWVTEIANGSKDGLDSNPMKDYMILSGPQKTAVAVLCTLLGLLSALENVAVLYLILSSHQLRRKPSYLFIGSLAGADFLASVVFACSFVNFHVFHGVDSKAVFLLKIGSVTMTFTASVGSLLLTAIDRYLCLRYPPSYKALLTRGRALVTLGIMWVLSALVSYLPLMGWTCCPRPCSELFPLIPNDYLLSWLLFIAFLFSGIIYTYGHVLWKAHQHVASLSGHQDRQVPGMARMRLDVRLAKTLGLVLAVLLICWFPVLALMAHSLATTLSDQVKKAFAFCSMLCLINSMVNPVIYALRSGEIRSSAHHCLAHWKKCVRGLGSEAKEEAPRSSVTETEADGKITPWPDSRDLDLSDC
- Method description: hCB2 internalisation assay (immunocytochemistry of surface receptor), HEK Flp-in hCB2 cells
- Assay type: cell-based
- Condition: 1 h stimulation
Measured parameter: EC50 (nM)
One number for each entry, in nM.

CCOc1nc(NC23CC4CC(CC(C4)C2)C3)nc(N2CCN(CCF)CC2)n1: 1.2

For each listed entry, give its EC50.
1. CCOc1nc(NC23CC4CC(CC(C4)C2)C3)nc(N2CCN(CCOCCOCCNC(=O)OC(C)(C)C)CC2)n1
2. CCOc1nc(NC23CC4CC(CC(C4)C2)C3)nc(N2CCNCC2)n1

1. 89.1
2. 45.7
